test system: UO-31; assay: NCI tumour cell line growth inhibition, 48 h
Activity calls are given as the source filed them. No stated cut-off is given here; in the data, active = GI50 up to about 1.1 µM and inactive = higher.
observedProperty: GI50

Examples with their reported GI50 follow.
>>> reportedmeasurement("Cc1ccc(S(=O)(=O)n2cc(-c3cc(C(F)(F)F)ccn3)c3cc(Br)ccc32)cc1")
"11.2 µM (inactive)"
>>> reportedmeasurement("CN1OC(=O)N(C)C1c1ccccc1 (stereo unspecified)")
"> 100 µM (inactive)"
>>> reportedmeasurement("CC(C)(C)n1c(=O)n(C(=O)C(Cl)(Cl)Cl)n(C(=O)C(Cl)(Cl)Cl)c1=O")
"> 100 µM (inactive)"
>>> reportedmeasurement("C/C(=N\\N(C)C)c1sc(-n2nc(-c3ccccc3)cc2-c2ccccc2)nc1C")
"> 100 µM (inactive)"
>>> reportedmeasurement("Nc1c2c(nc3ccccc13)-c1ccccc1NCCC2")
"25 µM (inactive)"

Return GI50 for the following compound: CS(=O)(=O)C1S(=O)(=O)OCCOS1(=O)=O
> 100 µM (inactive)

Give GI50 for CCCCC(C(=O)N/N=C/c1ccc([N+](=O)[O-])o1)C(=O)N/N=C/c1ccc([N+](=O)[O-])o1
1.99 µM (inactive)

* * *

system: A549; test: NCI tumour cell line growth inhibition, 48 h
Activity calls are given as the source filed them. Rule as the data show it: active = GI50 up to about 1.1 µM and inactive = higher.
Returns: one label drawn from active, inactive

Worked cases, answers included:
>>> cat("COc1cc(C(O)CCBr)c(OC)cc1C (stereo unspecified)")
"inactive"
>>> cat("O=c1[nH]n(Cc2ccccc2)c2ccc([N+](=O)[O-])cc12")
"inactive"
>>> cat("CC(C)=CC(=O)C/C(=N\\NC(N)=S)C(=O)Nc1ccc(Cl)cc1")
"inactive"
>>> cat("O=C1C=CC(=O)c2c(O)c(N(CCCl)CCCl)c(Cl)c(O)c21")
"inactive"
>>> cat("CC(=O)Nc1cc(/C=C\\C(=O)N2CC(CCl)c3c2cc(N)c2ccccc32)n(C)n1 (stereo unspecified)")
"active"

// outcome(item) with item = Cc1ccc(S(=O)(=O)n2cc(-c3cc(C(F)(F)F)ccn3)c3cc(Br)ccc32)cc1
inactive

Outcome logged for O=S(=O)(O)CCSSCCS(=O)(=O)O in this assay:
inactive

Per the records of this test, what outcome belongs to CN(C1=NS(=O)(=O)N=C(N(C)c2ccccc2)O1)c1ccccc1 ?
inactive

For this compound, state the assay outcome: O=C(Cn1c(=O)oc2ccc(C(=O)c3cccc(Cl)c3)cc21)c1ccccc1
inactive

Kindly provide the recorded test outcome for the following compound: Clc1cc(-c2ccccc2)nc(Nc2nc3ccccc3[nH]2)n1
inactive

Please share the test call associated with Cn1c(=O)c2nc3sc4ccccc4c(=N)n3c2n(C)c1=O .
inactive

* * *

system: OVCAR-3; experiment: NCI tumour cell line growth inhibition, 48 h
The source made the active and inactive calls. No stated cut-off is given here; in the data, active = GI50 up to about 1.1 µM and inactive = higher.
The categories you may choose from are active, inactive

Write down the call the test reported for this compound. Item: COc1cc(C(O)CCBr)c(OC)cc1C (stereo unspecified)
inactive

What did this assay record as the result for C/C=C1\CC2C(=O)CCC2C2c3ccccc3OC12 (stereo unspecified) ?
inactive

Which outcome was assigned to CCOC(=O)CC(=O)ON(C)C(=O)Cc1ccccc1 in this test?
inactive

Fill in: this test's call for CCNc1nc2ccccc2nc1NCC is ___
inactive

Which outcome was entered for the compound CCCCCC(=O)OC[n+]1ccc2c(C)c3[nH]c4ccc(OC)cc4c3c(C)c2c1 in this test?
inactive

Would you mind telling me which call this test gave CCN(CC)c1ccc(C2SCC(=O)N2c2ccc(NC(=O)c3ccc(N4C(=O)CSC4c4ccc(N(CC)CC)cc4)cc3)cc2)cc1 (stereo unspecified) ?
inactive

Returns: the outcome recorded for COc1ccc(S(=O)(=O)N/N=C/C(=O)O)cc1 in this assay.
inactive

State the result this test recorded for CSc1ccc(-c2cc(-c3nc4ccccc4[nH]3)nc3[nH]c(-c4nc5ccccc5[nH]4)cc(=O)c23)cc1 .
inactive

Just curious, what result did CC[C@H]1C=CCC[C@@]2(C[C@@H]3CC[C@@H]4[C@H](C(=O)OCCCCCCCCCCCCCCCC(=O)N(CCCNC(C)=O)C[C@H](CCNC(C)=O)OC(C)=O)[C@]5(CCC[C@@H](C)O5)NC(=[N+]34)N2)O1 get here?
active

So what was the verdict on CC(=O)Nc1ccc(/C=C/C(=O)c2sc(-c3cccnc3)nc2C)cc1 in this test?
inactive

* * *

test system: SK-OV-3; experiment: NCI tumour cell line growth inhibition, 48 h
The source made the active and inactive calls. Rule as the data show it: active = GI50 up to about 1.1 µM and inactive = higher.
In this section, each of the molecules is paired with its reported GI50.

Solved cases (3 shown):
>>> reportedmeasurement("CNC(=O)OCc1nc(SC)n(C)c1COC(=O)NC")
"63 µM (inactive)"
>>> reportedmeasurement("CC(C)(C)[Si](C)(C)OCC1OC(n2cnc3c(N)ncnc32)C2OC(=S)OC12 (centres undefined)")
"19.5 µM (inactive)"
>>> reportedmeasurement("Clc1cc(Br)c2c3c(c(Br)cc(Cl)c13)C(Br)=C2Br")
"> 100 µM (inactive)"

Turning to the following molecule.
// Input: O=C(Cn1c(=O)oc2ccc(C(=O)c3cccc(Cl)c3)cc21)c1ccccc1 . Output its GI50 only.
42.1 µM (inactive)

* * *

Assay system HCT-15; read-out recorded as GI50.

>>> reportedmeasurement("CC(C)(C)NC(=O)[C@H]1CC[C@H]2[C@@H]3CC=C4NC(=O)CC[C@]4(C)[C@H]3CC[C@]12C")
"> 100 µM"

Jot down GI50 (HCT-15) of COc1ccc(/C=C/COC(C)=O)cc1OC .
> 100 µM

Provide GI50, tested on HCT-15, for ClC1=NN=C(c2c[nH]c3ccccc23)CC1NCc1ccccc1 (configuration not stated) .
> 100 µM

Return reported GI50 for target or system HCT-15, item c1ccc(C2=Nn3c(CCCCCCCCc4nnc5n4N=C(c4ccccc4)CS5)nnc3SC2)cc1 .
> 100 µM

Answer briefly: GI50 recorded on HCT-15 for O=C(OCc1ccccc1CN1CCOCC1)c1ccc(Br)cc1
57.1 µM

Check HCT-15 data and give GI50 for O=C(CCN1CCOCC1)Nc1ccc2sc3ccccc3c(=O)c2n1 .
33.9 µM

* * *

test system: RPMI-8226; test: NCI tumour cell line growth inhibition, 48 h
The source made the active and inactive calls. Cut-off read from the data, not from the text of the source: active = GI50 up to about 1.1 µM and inactive = higher.
In this exercise, the only acceptable responses are yes (active), no (inactive)

Please review the entries below; each comes with its answer.
>>> cat("CC[C@H]1C=CCC[C@@]2(C[C@@H]3CC[C@@H]4[C@H](C(=O)OCCCCCCCCCCCCCCCC(=O)N(CCCNC(C)=O)C[C@H](CCNC(C)=O)OC(C)=O)[C@]5(CCC[C@@H](C)O5)NC(=[N+]34)N2)O1")
"yes"
>>> cat("C=C(C)C1CC=C(C)C(=O)C1 (stereo unspecified)")
"no"
>>> cat("Cc1cc(O)nc(NNC(C#N)c2cccc(O)c2)n1 (stereo unspecified)")
"no"
>>> cat("O=C1/C(=C/c2cccc([N+](=O)[O-])c2)CCCc2ccccc21")
"no"
>>> cat("CC(C)=CC(=O)C/C(=N\\NC(N)=S)C(=O)Nc1ccc(Cl)cc1")
"no"
>>> cat("CC1=C(C(=O)NNC(=O)C(N)=O)CC(C(=O)NNC(=O)C(N)=O)=C(C)N1")
"no"
>>> cat("CCOC(=O)NC(C(F)(F)F)(C(F)(F)F)P(=O)(OC(C)C)OC(C)C")
"no"
>>> cat("N#Cc1nc(C(CO)N(Cc2ccccc2)C(=O)O)oc1N (stereo unspecified)")
"no"
>>> cat("Cc1ccc([S+]([O-])c2ccccc2[N+](=O)[O-])cc1 (stereo unspecified)")
"no"
>>> cat("CN(C(=O)c1ccc(Cl)s1)C(=S)N(C)C(=O)c1ccc(Cl)s1")
"no"

Recorded test call requested for C=C1C(=O)O[C@@H]2C[C@]3(C)[C@@H](C[C@H]12)[C@](C)(O)CC[C@@H]3O
no

Kindly provide the recorded test outcome for the following compound: CC(C)(C)CNCCO
no

Just curious, what result did O=C(N/N=C(/c1ccccc1)C(F)(F)F)c1ccncc1 get here?
no

What was the test verdict on CC(=O)O[C@@H]1C(C2CCCCC2)C=[N+]([O-])O[C@@H]1OC1CCCC1(c1ccccc1)c1ccccc1 (stereo partly specified) ?
no

Query: recorded result category for CC(C)OC(=O)c1cc(NC(=S)OC(C)C)ccc1Cl in this test
no

Any idea what this test logged for COc1ccc(C2C(Cl)C(=O)N2NC(=O)c2ccc(N)cc2)cc1 (stereo unspecified) ?
no

Which outcome was entered for the compound O=c1ccc2cc(O)c(O)cc2o1 in this test?
no

Would you mind telling me which call this test gave O=S(=O)(N=S(c1ccc(Cl)cc1)c1ccc(Cl)cc1)c1ccccc1 ?
no

Could you please tell me the result logged for CN1N=C(c2ccncc2)OC1c1ccc(C(F)(F)F)cc1 (stereo unspecified) in this assay?
no

Give the logged outcome of this assay for the following compound: CNC(=O)OCc1nc(SC)n(C)c1COC(=O)NC
no

Which outcome did this test record for the compound CC(=O)N(O)[C@@H]1CC[C@H](n2cnc3c(N)ncnc32)C1 ?
no
